test: chemical genetic growth profiling, strain panel (AID 1159580);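 note: tested at 20 µM; growth read once vehicle control cultures reached saturation at 30 °C; 1 = growth at the plate median or of vehicle wells; lower values mean less growth of the strain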; settings: S. cerevisiae deletion strains, growth OD, locus YBL061C, strain skt5
Hit rate of the full screen: of about 5,500 compounds, about 2,000 (36%) were called active. Not shown: some 18% with an inconclusive outcome. Cut-off read from the data, not from the text of the source: active = normalized growth mostly below about 0.91 (no sharp cut-off); inconclusive = no clear call, values can overlap the other calls; inactive = mostly above about 0.92. Some of the results follow. Where a SMILES comes first, the peptide text is derived from it. [ ]: non-standard residue; d: D form. Orn = NCCC[CH](N)C(=O)O
// one of active, inactive, no free text

- molecule: "CCOc1cccc(C(=O)c2ccc(O)c(O)c2O)c1"
  class assignment: "active"
- molecule: "C=C(C)[C@H]1Cc2c(ccc3c2O[C@@H]2COc4cc(OC)c(OC)cc4[C@@H]2C3=O)O1"
  class assignment: "inactive"
- molecule: "O=C(CCc1ccc(O)cc1)c1c(O)cc(O)cc1O[C@@H]1O[C@H](CO)[C@@H](O)[C@H](O)[C@H]1O"
  class assignment: "inactive"
- molecule: "CC(C)CC1NC(=O)C(CCCN)NC(=O)C(C(C)C)NC(=O)C2CCCN2C(=O)C(Cc2ccccc2)NC(=O)C(CC(C)C)NC(=O)C(CCCN)NC(=O)C(C(C)C)NC(=O)C2CCCN2C(=O)C(Cc2ccccc2)NC1=O (configuration not stated) (cyclo(FPV[Orn]LFPV[Orn]L); configuration not given here)"
  class assignment: "inactive"
- molecule: "O=c1[nH]cnc2c1ncn2C1O[C@H](CO)[C@@H](O)[C@H]1O (some centres not stated)"
  class assignment: "inactive"
- molecule: "COc1cc2c(cc1OC)[C@@H]1C(=O)c3ccc4c(c3O[C@@H]1CO2)CC(C(C)C)O4 (some centres not stated)"
  class assignment: "inactive"

// return assay outcome for "CC[C@H]1OC(=O)[C@H](C)[C@@H](O[C@H]2C[C@@](C)(OC)[C@@H](O)[C@H](C)O2)[C@H](C)[C@@H](O[C@@H]2O[C@H](C)C[C@H](N(C)C)[C@H]2O)[C@](C)(O)C[C@@H](C)[C@@H]2N[C@@H](COCCOC)O[C@H]([C@H]2C)[C@]1(C)O"
inactive

====

Hi there, I'd appreciate the recorded normalized growth for every entry that follows.
test: chemical genetic growth profiling, strain panel (AID 1159580);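 note: tested at 20 µM; growth read once vehicle control cultures reached saturation at 30 °C; 1 = growth at the plate median or of vehicle wells; lower values mean less growth of the strain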; settings: S. cerevisiae deletion strains, growth OD, locus YNL067W, strain RPL9B, hits give low values
About 2,000 (36%) of roughly 5,500 compounds were called active. Inconclusive results (about 18%) are left out. The list shows a part of the results.
Answers are plain numbers.

Worked examples, 6 compounds total:
- compound: "CCCc1nc2c(C)cc(-c3nc4ccccc4n3C)cc2n1Cc1ccc(-c2ccccc2C(=O)O)cc1"
  normalized growth: 0.992
- compound: "C=C(C)[C@@H]1CC[C@]2(CO)CC[C@]3(C)[C@H](CCC4[C@@]5(C)CC[C@H](O)C(C)(C)C5CC[C@]43C)C12 (some centres undefined)"
  normalized growth: 1
- compound: "O=c1c(O)c(-c2ccc(O)c(O)c2)oc2cc(O)ccc12"
  normalized growth: 0.901
- compound: "COc1cc(-c2oc3cc(O)ccc3c(=O)c2O)cc(OC)c1OC"
  normalized growth: 0.986
- compound: "Cc1cc(=O)n(-c2ccccc2)n1C"
  normalized growth: 0.995
- compound: "C1CCC(C(CC2CCCCN2)C2CCCCC2)CC1 (centres undefined)"
  normalized growth: 0.793

Go through the list and state normalized growth for each entry.
1. NC[C@H]1O[C@H](O[C@H]2[C@H](O)[C@@H](O[C@H]3O[C@H](CO)[C@@H](O)[C@H](N)[C@H]3O)[C@H](N)C[C@@H]2N)[C@H](N)C[C@@H]1O
2. CCC1(CC)C(=O)C=CNC1=O

1: 0.99; 2: 0.981

Where these numbers come from: PubChem BioAssay AID1159580
